TESTED_ON: UniProt:P22303
Sequence (P22303 32-614): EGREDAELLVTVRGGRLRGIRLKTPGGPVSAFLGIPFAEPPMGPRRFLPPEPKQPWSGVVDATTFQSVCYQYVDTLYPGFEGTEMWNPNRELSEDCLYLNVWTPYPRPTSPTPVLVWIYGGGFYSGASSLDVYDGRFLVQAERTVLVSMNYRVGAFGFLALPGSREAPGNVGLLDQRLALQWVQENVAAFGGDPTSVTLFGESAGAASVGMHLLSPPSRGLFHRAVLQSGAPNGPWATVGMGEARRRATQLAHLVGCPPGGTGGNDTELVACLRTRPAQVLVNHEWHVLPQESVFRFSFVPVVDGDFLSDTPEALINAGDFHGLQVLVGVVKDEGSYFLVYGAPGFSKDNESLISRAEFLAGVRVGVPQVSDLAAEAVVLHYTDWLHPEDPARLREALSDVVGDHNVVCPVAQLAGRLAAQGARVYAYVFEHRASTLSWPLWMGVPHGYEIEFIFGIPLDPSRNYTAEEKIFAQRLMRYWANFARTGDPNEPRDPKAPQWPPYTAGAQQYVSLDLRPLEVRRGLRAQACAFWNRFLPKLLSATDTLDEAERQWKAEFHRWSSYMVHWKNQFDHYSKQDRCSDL
Each entry below carries its recorded IC50.
State the answer as a number, implicitly in µM.

O=S(=O)(/N=C(/NCCCCNc1c2c(nc3ccccc13)CCCC2)N1CC(c2ccccc2)C(c2ccc(Cl)cc2)=N1)c1ccc(Cl)cc1 (centres unmarked) : 2.51

Query compound follows.
Request: Specify measured IC50 for Cc1c(C(=O)NN2CCCCC2)nn(-c2ccc(Cl)cc2Cl)c1-c1ccc(Cl)cc1 .
Response: 25.1

* * *

TESTED_ON: human cannabinoid CB1 receptor (Homo sapiens, UniProt P21554)
Sequence (P21554 whole entry): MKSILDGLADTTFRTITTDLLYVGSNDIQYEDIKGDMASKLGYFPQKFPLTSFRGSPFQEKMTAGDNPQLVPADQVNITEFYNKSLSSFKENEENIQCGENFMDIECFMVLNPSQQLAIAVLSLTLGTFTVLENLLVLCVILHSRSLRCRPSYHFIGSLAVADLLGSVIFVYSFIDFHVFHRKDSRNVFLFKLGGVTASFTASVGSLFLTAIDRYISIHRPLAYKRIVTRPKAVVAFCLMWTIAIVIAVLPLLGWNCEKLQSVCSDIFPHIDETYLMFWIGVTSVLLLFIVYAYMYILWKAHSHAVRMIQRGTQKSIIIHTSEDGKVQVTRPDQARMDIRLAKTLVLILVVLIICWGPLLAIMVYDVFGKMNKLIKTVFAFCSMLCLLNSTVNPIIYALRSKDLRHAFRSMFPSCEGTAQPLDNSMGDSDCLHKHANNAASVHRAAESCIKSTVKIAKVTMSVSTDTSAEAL
READOUT_TYPE: Ki (nM)
State the answer as a number, implicitly in nM.

Request: Specify measured Ki for O=S(=O)(/N=C(/NCCCCNc1c2c(nc3ccccc13)CCCC2)N1CC(c2ccccc2)C(c2ccc(Cl)cc2)=N1)c1ccc(Cl)cc1 (stereo not shown) .
Response: 39.8
